Test system: S. pyogenes C203
Items are presented alongside their recorded MIC.
Report only the number, with the unit µg/mL understood.

Value of measured MIC for the entry NC1CCN(c2cc3c(cc2F)c(=O)n(O)c(=O)n3C2CC2)C1 (centres unmarked) : 4

Value of measured MIC for the entry O=c1c2cc(F)c(N3CCCC3)cc2n(-c2cccc(F)c2)c(=O)n1O : 32

Value of measured MIC for the entry O=c1c2cc(F)c(N3CCCC3)nc2n(C2CC2)c(=O)n1O : 64

Value of measured MIC for the entry CCn1c(=O)n(O)c(=O)c2cc(F)c(N3CCCC3)cc21 : 32

* * *

Target: E. coli Topoisomerase IV (Escherichia coli, UniProt P0AFI2+P20083)
Construct: made in house; host or cells: E. coli overexpressing strains
Sequence (P20083 whole entry): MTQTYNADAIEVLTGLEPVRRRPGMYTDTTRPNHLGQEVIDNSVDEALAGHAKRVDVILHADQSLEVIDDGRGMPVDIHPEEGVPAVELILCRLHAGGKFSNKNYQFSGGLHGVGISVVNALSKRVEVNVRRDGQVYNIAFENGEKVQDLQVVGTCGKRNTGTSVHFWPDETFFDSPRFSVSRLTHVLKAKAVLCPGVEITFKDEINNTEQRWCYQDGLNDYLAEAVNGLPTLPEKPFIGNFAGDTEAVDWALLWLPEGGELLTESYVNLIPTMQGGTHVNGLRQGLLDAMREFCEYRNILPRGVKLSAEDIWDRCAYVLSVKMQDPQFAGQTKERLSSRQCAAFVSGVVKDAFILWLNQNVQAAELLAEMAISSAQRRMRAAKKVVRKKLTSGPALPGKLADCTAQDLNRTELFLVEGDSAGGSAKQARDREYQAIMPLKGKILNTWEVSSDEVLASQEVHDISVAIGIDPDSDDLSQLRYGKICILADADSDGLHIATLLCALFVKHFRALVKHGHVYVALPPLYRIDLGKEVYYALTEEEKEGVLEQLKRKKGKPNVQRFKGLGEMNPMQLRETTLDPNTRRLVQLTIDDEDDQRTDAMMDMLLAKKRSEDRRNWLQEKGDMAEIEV
Sequence (P0AFI2 whole entry): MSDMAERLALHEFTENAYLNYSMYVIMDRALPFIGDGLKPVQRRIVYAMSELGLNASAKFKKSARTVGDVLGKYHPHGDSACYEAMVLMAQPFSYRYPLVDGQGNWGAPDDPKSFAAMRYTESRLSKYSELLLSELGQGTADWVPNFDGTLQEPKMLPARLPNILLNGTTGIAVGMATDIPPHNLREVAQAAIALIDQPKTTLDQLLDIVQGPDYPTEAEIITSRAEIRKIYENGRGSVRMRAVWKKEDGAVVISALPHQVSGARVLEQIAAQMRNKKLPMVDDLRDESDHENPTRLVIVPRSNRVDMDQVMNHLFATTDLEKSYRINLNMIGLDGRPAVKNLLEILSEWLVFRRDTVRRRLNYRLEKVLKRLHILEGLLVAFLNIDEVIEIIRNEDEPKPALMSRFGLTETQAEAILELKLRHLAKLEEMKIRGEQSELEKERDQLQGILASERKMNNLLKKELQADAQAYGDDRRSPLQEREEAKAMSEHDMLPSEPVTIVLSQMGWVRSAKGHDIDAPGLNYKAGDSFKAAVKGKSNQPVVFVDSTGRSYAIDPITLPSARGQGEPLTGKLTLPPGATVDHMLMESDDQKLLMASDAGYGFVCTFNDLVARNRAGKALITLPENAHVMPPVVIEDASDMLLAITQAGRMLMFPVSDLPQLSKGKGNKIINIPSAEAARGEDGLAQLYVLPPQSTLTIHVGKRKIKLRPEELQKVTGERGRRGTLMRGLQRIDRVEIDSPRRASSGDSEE
Test: Topoisomerase IV k-DNA decatenation assay
Format: biochemical
quantity.measured: IC50

{"compound": "CCn1c(=O)n(O)c(=O)c2cc(F)c(N3CCN(C)CC3)cc21", "quantity.measured": "IC50", "result": "> 100 µM"}

Value of measured IC50 for the entry CCn1c(=O)n(O)c(=O)c2cc(F)c(N3CCNCC3)cc21 : 49 µM

Value of measured IC50 for the entry CCn1c(=O)n(O)c(=O)c2cc(F)c(N3CCC(C)(CN)C3)cc21.Cl (stereo not shown) [Example 9, hydrochloride] : > 100 µM

Value of measured IC50 for the entry CCn1c(=O)n(O)c(=O)c2cc(F)c(N3CCC(CN)C3)cc21.Cl (stereo not shown) [Example 6, hydrochloride] : 59 µM

* * *

System: B. subtilis RB1
Strictly below 4 µg/mL in MIC: label 1. Otherwise: label 0.

{"molecule": "CCn1c(=O)n(O)c(=O)c2cc(F)c(N3CCNCC3)cc21 [Example 7]", "label": "label 0"}
{"molecule": "O=c1c2cc(F)c(N3CCCC3)cc2n(C2CC2)c(=O)n1O [Example 38]", "label": "label 1"}
{"molecule": "CCn1c(=O)n(O)c(=O)c2cc(F)c(N3CCN(C)CC3)cc21 [Example 2]", "label": "label 0"}
{"molecule": "CCn1c(=O)n(O)c(=O)c2cc(F)c(N3CCC(CN)C3)cc21.Cl (stereo not drawn) [Example 6]", "label": "label 0"}
{"molecule": "NC1CCN(c2cc3c(cc2F)c(=O)n(O)c(=O)n3C2CC2)C1 (stereo not drawn) [Example 39]", "label": "label 1"}
{"molecule": "CCn1c(=O)n(O)c(=O)c2cc(F)c(N3CCOCC3)cc21 [Example 3]", "label": "label 0"}

Input CCn1c(=O)n(O)c(=O)c2cc(F)c(N3CCCCC3)cc21 [Example 4] ; condition: MIC strictly below 4 µg/mL. Does it hold?
label 0

Input CCn1c(=O)n(O)c(=O)c2cc(F)c(N3CCC(C)(CN)C3)cc21.Cl (stereo not drawn) [Example 9] ; condition: MIC strictly below 4 µg/mL. Does it hold?
label 0

* * *

Measured MIC on S. pyogenes C203 follows.
Report only the number, with the unit µg/mL understood.

Solved cases (3 shown):
{"molecule": "O=c1c2cc(F)c(N3CCCC3)nc2n(-c2ccc(F)cc2)c(=O)n1O [Example 56]", "result.units": "µg/mL", "MIC": 8}
{"molecule": "CCn1c(=O)n(O)c(=O)c2cc(F)c(N3CCC(CN)C3)cc21.Cl (stereo not drawn) [Example 6]", "result.units": "µg/mL", "MIC": 16}
{"molecule": "CCn1c(=O)n(O)c(=O)c2cc(F)c(N3CCC(C)(CN)C3)cc21.Cl (stereo not drawn) [Example 9]", "result.units": "µg/mL", "MIC": 8}

Fill in: S. pyogenes C203 MIC for Cl.NC1CCN(c2cc3c(cc2F)c(=O)n(O)c(=O)n3-c2ccc(F)cc2)C1 (stereo not drawn) [Example 17] = 32

Fill in: S. pyogenes C203 MIC for COc1cccc(-n2c(=O)n(O)c(=O)c3cc(F)c(N4CCCC4)cc32)c1 [Example 23] = 32

Fill in: S. pyogenes C203 MIC for O=c1c2cc(F)c(N3CCCC3)cc2n(-c2ccc(O)cc2)c(=O)n1O [Example 14] = 64

Fill in: S. pyogenes C203 MIC for CCn1c(=O)n(O)c(=O)c2cc(F)c(N3CCCCC3)cc21 [Example 4] = 64

Provenance of the data: patent US6825199B2
